Would you kindly list IC50 for each of these compounds?
- tested_on: human MCH receptor (Homo sapiens)
- Sequence (Q99705 whole entry): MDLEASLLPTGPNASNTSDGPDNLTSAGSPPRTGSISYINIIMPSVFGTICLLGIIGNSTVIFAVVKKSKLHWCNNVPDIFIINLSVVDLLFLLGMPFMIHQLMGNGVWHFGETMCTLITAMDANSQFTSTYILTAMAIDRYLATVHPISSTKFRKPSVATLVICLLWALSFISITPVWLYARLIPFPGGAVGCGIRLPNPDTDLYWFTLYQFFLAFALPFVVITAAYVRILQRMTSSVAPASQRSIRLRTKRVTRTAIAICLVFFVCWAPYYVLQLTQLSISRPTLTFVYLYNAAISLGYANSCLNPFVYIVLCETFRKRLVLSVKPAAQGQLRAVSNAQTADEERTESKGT
- run_description: calcium immobilization assay: functional IC50 of MCH1R antagonists (cellular calcium flux, FLIPR)
- test_settings: recombinant HEK293 cell line expressing the human MCH receptor, calcium flux after addition of agonist (MCH)
Numeric only. Scale: nM

stdin: Value lookup for IC50; key = CN1CCCN(c2ccc(-n3cnc4cc(C(O)C5CCCC5)sc4c3=O)cc2)CC1 (centres unmarked) [Example 77]
stdout: 9030

stdin: Also COC(C)(C)CCc1cc2ncn(-c3ccc(N4CC[C@@H](N(C)C)C4)cc3)c(=O)c2s1 [Example 57] , if possible.
stdout: 2090

stdin: // next record CC(O)C#Cc1cc2ncn(-c3ccc(N4CC[C@@H](N(C)C)C4)c(F)c3)c(=O)c2s1 (some centres unmarked) [Example 49]
stdout: 180

stdin: Also need CN(C)[C@@H]1CCN(c2ccc(-n3cnc4cc(C#CC5CC5)sc4c3=O)cc2)C1 [Example 45] , thanks.
stdout: 110

stdin: Same for CCC(O)CCc1cc2ncn(-c3ccc(N4CC[C@@H](N5CCCC5)C4)c(F)c3)c(=O)c2s1 (some centres unmarked) [Example 63]
stdout: 240

stdin: Check COCC#Cc1cc2ncn(-c3ccc(N4CC[C@@H](N(C)CCS(C)(=O)=O)C4)cc3)c(=O)c2s1 [Example 39] too.
stdout: 920

stdin: Follow-up entry: COCC#Cc1cc2ncn(-c3ccc(N4CC[C@@H](N(C)C)C4)c(F)c3)c(=O)c2s1 [Example 47]
stdout: 230

stdin: Repeat for the following compound: CN(CCS(C)(=O)=O)[C@@H]1CCN(c2ccc(-n3cnc4cc(CCC5CC5)sc4c3=O)cc2)C1 [Example 50]
stdout: 320

* * *

- tested_on: UniProt:Q99705
- run_description: calcium immobilization assay: functional IC50 of MCH1R antagonists (cellular calcium flux, FLIPR)
- test_settings: recombinant HEK293 cell line expressing the human MCH receptor, calcium flux after addition of agonist (MCH)
experimental_readout: log10 of IC50 (log10 of the value in nM)
Log scale reminder: IC50 in nM, then log10 taken.

stdin: Item under review: CN1CCCN(c2ccc(-n3cnc4cc(C(=O)C5CCCC5)sc4c3=O)cc2)CC1 . Reported log10 of IC50?
stdout: 3.94

stdin: Consider next the compound CN(C)C1CCN(c2ccc(-n3cnc4cc(COCC5CC5)sc4c3=O)cc2)C1 (stereo not shown) in the same way.
stdout: 2.78

stdin: Record: CCO/C=C\c1cc2ncn(-c3ccc(N4CCCN(C)CC4)cc3)c(=O)c2s1
stdout: 3.47

stdin: Next record, please: COCCCc1cc2ncn(-c3ccc(N4CC[C@@H](N5CCCC5)C4)c(F)c3)c(=O)c2s1
stdout: 2.75

stdin: Next record, please: CN(C)[C@@H]1CCN(c2ccc(-n3cnc4cc(C#CC5(O)CCCC5)sc4c3=O)cc2)C1
stdout: 3.13

stdin: # iterate: CCC(O)C#Cc1cc2ncn(-c3ccc(N4CC[C@@H](N(C)CCS(C)(=O)=O)C4)cc3)c(=O)c2s1 (stereo partly shown)
stdout: 2.82

stdin: Queued: CCCOCc1cc2ncn(-c3ccc(N4CCC(N(C)C)C4)cc3)c(=O)c2s1 (stereo not shown)
stdout: 2.53

stdin: Now this one: CN(C)[C@@H]1CCN(c2ccc(-n3cnc4cc(N5CCCCC5)sc4c3=O)cc2)C1
stdout: 3.12

stdin: Now this one: CS(=O)(=O)CCN1CCCN(c2ccc(-n3cnc4cc(C#CC5CC5)sc4c3=O)cc2)CC1
stdout: 2.87

stdin: Repeat with CC(C)C(O)C#Cc1cc2ncn(-c3ccc(N4CCCN(C)CC4)cc3)c(=O)c2s1 (stereo not shown)
stdout: 3.04

stdin: Cool, now CC(O)C#Cc1cc2ncn(-c3ccc(N4CC[C@@H](N(C)CCS(C)(=O)=O)C4)cc3)c(=O)c2s1 (stereo partly shown)
stdout: 2.64

stdin: Same read-out for CC(O)C#Cc1cc2ncn(-c3ccc(N4CC[C@@H](N(C)C)C4)cc3)c(=O)c2s1 (stereo partly shown) ?
stdout: 2.58

stdin: And C[C@@H](O)C#Cc1cc2ncn(-c3ccc(N4CC[C@@H](N5CCCC5)C4)c(F)c3)c(=O)c2s1 ?
stdout: 2.26
